Target: Lysine-specific demethylase 4C (Homo sapiens, UniProt Q9H3R0)
Sequence (Q9H3R0 whole entry): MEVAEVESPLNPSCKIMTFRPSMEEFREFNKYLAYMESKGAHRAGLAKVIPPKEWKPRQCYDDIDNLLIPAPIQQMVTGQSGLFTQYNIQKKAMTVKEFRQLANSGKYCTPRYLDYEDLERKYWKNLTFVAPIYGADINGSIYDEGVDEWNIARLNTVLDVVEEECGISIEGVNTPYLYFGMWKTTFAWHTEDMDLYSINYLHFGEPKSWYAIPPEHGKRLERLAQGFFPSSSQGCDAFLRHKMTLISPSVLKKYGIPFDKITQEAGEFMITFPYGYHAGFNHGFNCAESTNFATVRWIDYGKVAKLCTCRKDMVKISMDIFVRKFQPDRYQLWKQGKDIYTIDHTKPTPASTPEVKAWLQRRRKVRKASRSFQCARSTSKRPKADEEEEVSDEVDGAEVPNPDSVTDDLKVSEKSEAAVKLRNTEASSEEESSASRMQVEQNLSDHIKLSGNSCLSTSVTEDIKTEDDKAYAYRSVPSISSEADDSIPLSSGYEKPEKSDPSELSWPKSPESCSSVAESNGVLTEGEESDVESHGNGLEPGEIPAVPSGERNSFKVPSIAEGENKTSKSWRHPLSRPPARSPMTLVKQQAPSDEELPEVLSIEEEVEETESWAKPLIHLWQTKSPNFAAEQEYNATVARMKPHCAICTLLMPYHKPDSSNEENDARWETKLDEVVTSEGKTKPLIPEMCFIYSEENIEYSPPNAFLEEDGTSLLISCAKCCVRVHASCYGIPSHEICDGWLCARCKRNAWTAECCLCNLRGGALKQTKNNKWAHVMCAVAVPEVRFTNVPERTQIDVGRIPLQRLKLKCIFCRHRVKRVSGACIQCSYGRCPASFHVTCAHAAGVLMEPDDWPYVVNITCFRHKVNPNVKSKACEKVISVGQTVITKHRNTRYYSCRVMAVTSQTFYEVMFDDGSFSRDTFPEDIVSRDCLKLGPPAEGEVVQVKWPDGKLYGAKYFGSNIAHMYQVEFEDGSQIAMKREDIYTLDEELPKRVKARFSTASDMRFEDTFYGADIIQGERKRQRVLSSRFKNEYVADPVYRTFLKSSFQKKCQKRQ
Assay: Competitive inhibition of N-terminal His6-tagged KDM4C (1 to 352 residues) (unknown origin) expressed in Escherichia coli Rosetta 2(DE3)pLysS using 50 uM ARK(Me3)STGGK peptide/5 uM alpha-ketoglutarate as substrate/cofactor by FDH coupling-based Lineweaver-Burk plot analysis
I'd be grateful if you could share measured IC50 for these entries.
Quick reminder: number only, in nM, skip the unit.

// IC50 lookup, key: `COCC(=O)Nc1ccc(O)c(-c2cc(C(=O)O)ccn2)c1`
3300

// IC50 lookup, key: `O=C(O)c1ccnc(-c2cc(NC(=O)c3ccc(O)cc3)ccc2O)c1`
1100

* * *

molecular target: Lysine-specific demethylase 4C (Homo sapiens); assay: Inhibition of N-terminal His6-tagged KDM4C (1 to 352 residues) (unknown origin) expressed in Escherichia coli Rosetta 2(DE3)pLysS using biotinylated histone H3 (1 to 21 residues) lysine 9 trimethylated peptide/50 uM alpha-ketoglutarate as substrate/cofactor measured after 45 mins by TR-FRET assay; settings: read-out: IC50
I'd be grateful if you could share measured pIC50 for these entries.
Remember the convention: pIC50 equals -log10 of concentration in molar.

// pIC50 lookup, key: `COc1ccc(CC(=O)Nc2ccc(O)c(-c3cc(C(=O)O)ccn3)c2)cc1`
5.43

// pIC50 lookup, key: `O=C(O)c1ccnc(-c2cc(NC(=O)c3ccc(O)cc3)ccc2O)c1`
5.59

// pIC50 lookup, key: `O=C(Cc1cccc(Br)c1)Nc1ccc(O)c(-c2cc(C(=O)O)ccn2)c1`
5.47

// pIC50 lookup, key: `CC(=O)Nc1ccc(O)c(-c2cc(C(=O)O)ccn2)c1`
4.40

// pIC50 lookup, key: `O=C(Cc1ccccc1)Nc1ccc(O)c(-c2cc(C(=O)O)ccn2)c1`
4.77

// pIC50 lookup, key: `Cc1cc(C(=O)Nc2ccc(O)c(-c3cc(C(=O)O)ccn3)c2)no1`
5.30

// pIC50 lookup, key: `COc1cccc(CC(=O)Nc2ccc(O)c(-c3cc(C(=O)O)ccn3)c2)c1`
5.82

// pIC50 lookup, key: `COCC(=O)Nc1ccc(O)c(-c2cc(C(=O)O)ccn2)c1`
5.13

Ref: ChEMBL document CHEMBL3774347
